- Test system: Plasmodium berghei
- Measurement Notes: Screen against P. berghei liver stage (PbLuc), transformed with Luciferase, at 10uM
- Type: functional, HepG2
- Condition Context: tested at 10 uM
The whole screen tested about 69,000 compounds, of which about 8,600 (12%) showed an effect of 50% or more. Shown is part of a subset that was picked to be rich in strong results.
Attribute Measured: INHIBITION (%)
Give the number; % is assumed, so skip it.

Problem: Lookup: INHIBITION / Plasmodium berghei / `Cc1cc(O)c(OCC(=O)Nc2nc3c(s2)CCCCC3)cn1`
Result: 54.9

Problem: Quick check: INHIBITION on Plasmodium berghei, item O=C(c1ccccc1-c1ccccc1)N1CCOC2(CNCCOC2)C1 (stereo unspecified) ?
Result: -16.5

Problem: Param readout= INHIBITION; system= Plasmodium berghei; entry= c1ccc(N2CCN(Cc3cnc(C4CCCCO4)nc3)CC2)cc1 (stereo unspecified) ; returns value.
Result: 21.1

Problem: Notebook: pull reported INHIBITION for Plasmodium berghei, entry `CCOC(=O)N1CCN(c2nc(C)ncc2CC)CC1`
Result: 47.1

Problem: # get_value(readout= INHIBITION, system= Plasmodium berghei) for `Fc1ccc(-c2noc([C@@H]3Cc4nc[nH]c4CN3)n2)cc1`
Result: -9.26

Problem: Find INHIBITION (Plasmodium berghei) for the entry `NC(=O)c1c[nH]nc1NC(=O)c1ccc(Cl)cc1`
Result: -6.3

Continuing:
Problem: # query: INHIBITION | item `FC(F)(F)Oc1ccc(-c2noc([C@@H]3Cc4nc[nH]c4CN3)n2)cc1` | system: Plasmodium berghei
Result: 64.8

Problem: Lab request: please report INHIBITION under test system Plasmodium berghei for Cc1ccccc1C(=O)N1CCOC2(CNCCOC2)C1 (stereo unspecified)
Result: 55.1

Problem: Test system Plasmodium berghei; read-out INHIBITION; what value for `CCc1cnc(C)nc1N1CCS(=O)(=O)CC1` ?
Result: 57.3

Problem: Reported INHIBITION for Plasmodium berghei, given O=C(NCC1CC1)C1CCC2(CCN(C(=O)c3ccccn3)CC2)O1 (stereo unspecified) ?
Result: -3.44

Problem: Look up INHIBITION with Plasmodium berghei for this molecule: `Cc1noc(C)c1CN1C[C@@H]2C[C@H](C(=O)NCC3CC3)N(C)[C@@H]2C1`
Result: 26

====

We begin with a simple list: items and their reported INHIBITION.
- Test system: Plasmodium berghei
- Measurement Notes: Screen against P. berghei liver stage (PbLuc), transformed with Luciferase, at 10uM
- Type: functional, HepG2
- Condition Context: tested at 10 uM
Screen size: about 69,000 compounds; about 8,600 (12%) showed an effect of 50% or more. What follows is part of a selection rich in strong results, with near analogues and random picks from the rest.
Answer with a number only, understood to be in %.

Solved entries (count: 3):
Problem: Could you tell me which INHIBITION is on file for COC(=O)CN(C)C1CCc2ccccc21 (centres undefined) ?
Result: 20.1

Problem: // query INHIBITION value for entry CCC(C(=O)NC1(C(N)=O)CCCC1)n1cccn1 (centres undefined)
Result: 55.9

Problem: Reported INHIBITION for CCOCC1CN(Cc2cccnc2)Cc2nn(C)cc21 (centres undefined) : what is it?
Result: -21.4

// moving on: another record for INHIBITION
Problem: Which INHIBITION is listed for `CN(C)CCN(C)S(=O)(=O)CC1CCOCC1` ?
Result: 30.2
